Data provenance is ChEMBL document CHEMBL1133700.

system-name: UniProt P15207
Sequence (P15207 whole entry): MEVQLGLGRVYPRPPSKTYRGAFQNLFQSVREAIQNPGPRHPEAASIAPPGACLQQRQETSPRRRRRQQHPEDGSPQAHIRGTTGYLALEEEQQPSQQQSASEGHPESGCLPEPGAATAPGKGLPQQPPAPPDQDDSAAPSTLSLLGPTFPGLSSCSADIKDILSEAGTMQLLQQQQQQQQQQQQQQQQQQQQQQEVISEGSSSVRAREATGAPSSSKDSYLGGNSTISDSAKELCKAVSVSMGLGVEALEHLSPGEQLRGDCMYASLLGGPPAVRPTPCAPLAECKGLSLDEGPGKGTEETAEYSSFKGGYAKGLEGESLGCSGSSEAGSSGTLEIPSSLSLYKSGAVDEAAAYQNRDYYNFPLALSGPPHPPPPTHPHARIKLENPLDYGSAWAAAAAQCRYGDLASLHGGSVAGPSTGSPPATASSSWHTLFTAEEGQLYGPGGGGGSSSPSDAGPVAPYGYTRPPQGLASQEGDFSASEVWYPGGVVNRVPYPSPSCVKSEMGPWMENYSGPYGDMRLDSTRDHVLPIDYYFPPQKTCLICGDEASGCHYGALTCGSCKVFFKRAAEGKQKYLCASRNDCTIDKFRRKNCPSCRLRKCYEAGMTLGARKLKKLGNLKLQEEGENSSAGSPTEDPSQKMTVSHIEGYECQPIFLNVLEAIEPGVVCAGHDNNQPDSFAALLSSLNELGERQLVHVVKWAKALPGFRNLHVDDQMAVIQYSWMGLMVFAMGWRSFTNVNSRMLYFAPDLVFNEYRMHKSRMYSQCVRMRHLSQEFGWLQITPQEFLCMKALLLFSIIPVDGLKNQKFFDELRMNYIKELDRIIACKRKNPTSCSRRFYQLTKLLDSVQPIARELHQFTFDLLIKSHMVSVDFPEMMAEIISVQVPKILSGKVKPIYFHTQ
Reported Ki values for the following compounds.
Report only the number, with the unit nM understood.

Q: Find the measured Ki of C[C@](O)(CS(=O)(=O)c1cccc(NC(=O)CCl)c1)C(=O)Nc1ccc(C#N)c(C(F)(F)F)c1 and report it.
Result: 130

Q: Find the measured Ki of C[C@](O)(CS(=O)(=O)c1ccc(N=C=S)cc1)C(=O)Nc1ccc(C#N)c(C(F)(F)F)c1 and report it.
Result: 41
